Study Target: CDK2 (Homo sapiens, UniProt P24941)
Construct: endogenous in cells; host or cells: MKN1 cells
Test Details: CDK2 degradation in MKN1 cells (AlphaLISA)
Format: cell-based
Test Conditions: 14 h incubation
Readout Label: CDK2 degradation 14 h: Average Dmax %

>  <Molecule>
Cc1cc(S(=O)(=O)NCCOC2CCC(CN3CCC(c4ccc5c(c4)n(C)c(=O)n5C4CCC(=O)NC4=O)CC3)CC2)ccc1Nc1ncc2c(n1)N(C1CCCC1)C(=O)C21CC1 (stereo not drawn)

>  <Result>
A (A (>75% o))

$$$$
>  <Molecule>
Cc1cc(S(=O)(=O)C2CC3(CCN(CC4CCN(c5ccc6c(c5)n(C)c(=O)n6C5CCC(=O)NC5=O)CC4)CC3)C2)ccc1Nc1ncc2cc(Cl)c(=O)n(C3CCCC3)c2n1 (stereo not drawn)

>  <Result>
A (A (>75% o))

$$$$

* * *

Study Target: CDK2 (Homo sapiens, UniProt P24941)
Construct: endogenous in cells; host or cells: MKN1 cells
Test Details: CDK2 degradation in MKN1 cells (AlphaLISA)
Type: cell-based
Test Conditions: 14 h incubation, read-out: CDK2 degradation 14 h: Mean external-Abs DC50
Readout Label: DC50

Exercise: I would be grateful if you could share the reported DC50 for Cc1cc(S(=O)(=O)N2CC(OCCN3CCC(c4ccc5c(c4)n(C)c(=O)n5C4CCC(=O)NC4=O)CC3)C2)ccc1Nc1ncc2ccc(=O)n(C3CCCC3)c2n1 (centres unmarked) .
Solution: < 100 nM

Exercise: I would be grateful if you could share the reported DC50 for Cc1cc(S(=O)(=O)NC2CCC(CN3CCN(c4cccc5c4n(C)c(=O)n5C4CCC(=O)NC4=O)CC3)CC2)ccc1Nc1ncc(C(F)(F)F)c(N2CCCC(C)(O)C2)n1 (centres unmarked) .
Solution: < 100 nM

Exercise: I would be grateful if you could share the reported DC50 for Cc1cc(S(=O)(=O)NC(C)COC2CCC(CN3CCN(c4ccc5c(c4F)n(C)c(=O)n5C4CCC(=O)NC4=O)CC3)CC2)ccc1Nc1ncc(C(F)(F)F)c(C2CCC(C)(O)CC2)n1 (racemic) [I-859] .
Solution: < 100 nM

Exercise: I would be grateful if you could share the reported DC50 for CN(CC1CCC(NS(=O)(=O)c2ccc(Nc3ncc(C(F)(F)F)c(N4CCCC(C)(O)C4)n3)c(C(F)F)c2)CC1)C1CN(c2ccc(C3CCC(=O)NC3=O)c(F)c2)C1 (centres unmarked) .
Solution: 100 to 500 nM

Exercise: I would be grateful if you could share the reported DC50 for Cc1cc(S(=O)(=O)C2CC3(CCN(CC4CCN(c5ccc6c(c5F)n(C)c(=O)n6C5CCC(=O)NC5=O)CC4)CC3)C2)ccc1Nc1cc2c(ccc(=O)n2C2CCCC2)cn1 (centres unmarked) .
Solution: < 100 nM

* * *

Study Target: CDK2 (Homo sapiens)
Construct: endogenous in cells; host or cells: MKN1 cells
Test Details: CDK2 degradation in MKN1 cells (AlphaLISA)
Format: cell-based
Test Conditions: 14 h incubation, read-out: CDK2 degradation 14 h: Mean external-Abs DC50
Readout Label: DC50

Exercise: I would be grateful if you could share the reported DC50 for Cc1cc(S(=O)(=O)NC2CCC(CN3CCN(c4cccc(NC5CCC(=O)NC5=O)c4)CC3)CC2)ccc1Nc1ncc(C(F)(F)F)c(N2CCCC(C)(O)C2)n1 (centres unmarked) [I-775] .
Solution: < 100 nM
